Data origin: BigSolDB 2.1

Conditions: in DMF, 298.15 K
EXPERIMENTAL_READOUT: solubility (mole fraction)
Answers are plain numbers.

Retrieve solubility (mole fraction) measured for O=S(=O)([O-])Oc1ccc(C(c2ccc(OS(=O)(=O)[O-])cc2)c2ccccn2)cc1.[Na+].[Na+] and print it.
0.0269

---

Details: in methanol, 303.15 K
EXPERIMENTAL_READOUT: solubility (mole fraction)
Numbers only.

Retrieve solubility (mole fraction) measured for O=S(=O)([O-])Oc1ccc(C(c2ccc(OS(=O)(=O)[O-])cc2)c2ccccn2)cc1.[Na+].[Na+] and print it.
0.0116

---

Settings: in acetic acid, 298.15 K
EXPERIMENTAL_READOUT: solubility (mole fraction)

Retrieve solubility (mole fraction) measured for O=S(=O)([O-])Oc1ccc(C(c2ccc(OS(=O)(=O)[O-])cc2)c2ccccn2)cc1.[Na+].[Na+] and print it.
0.0014

---

Conditions: in DMSO, 313.15 K
EXPERIMENTAL_READOUT: solubility (mole fraction)
Answers are plain numbers.

Retrieve solubility (mole fraction) measured for O=S(=O)([O-])Oc1ccc(C(c2ccc(OS(=O)(=O)[O-])cc2)c2ccccn2)cc1.[Na+].[Na+] and print it.
0.0083

---

Conditions: in n-propanol, 303.15 K
EXPERIMENTAL_READOUT: solubility (mole fraction)
Give bare numbers.

Retrieve solubility (mole fraction) measured for O=S(=O)([O-])Oc1ccc(C(c2ccc(OS(=O)(=O)[O-])cc2)c2ccccn2)cc1.[Na+].[Na+] and print it.
0.0004

---

Details: in water, 298.15 K
EXPERIMENTAL_READOUT: solubility (mole fraction)
Give bare numbers.

Retrieve solubility (mole fraction) measured for O=S(=O)([O-])Oc1ccc(C(c2ccc(OS(=O)(=O)[O-])cc2)c2ccccn2)cc1.[Na+].[Na+] and print it.
0.0215

---

Conditions: in acetonitrile, 298.15 K
EXPERIMENTAL_READOUT: solubility (mole fraction)
One number for each entry.

Retrieve solubility (mole fraction) measured for O=S(=O)([O-])Oc1ccc(C(c2ccc(OS(=O)(=O)[O-])cc2)c2ccccn2)cc1.[Na+].[Na+] and print it.
0.0001

---

Settings: in ethanol, 318.15 K
EXPERIMENTAL_READOUT: solubility (mole fraction)
Numbers only.

Retrieve solubility (mole fraction) measured for O=S(=O)([O-])Oc1ccc(C(c2ccc(OS(=O)(=O)[O-])cc2)c2ccccn2)cc1.[Na+].[Na+] and print it.
0.0041

---

Conditions: in ethanol, 308.15 K
EXPERIMENTAL_READOUT: solubility (mole fraction)
Answers are plain numbers.

Retrieve solubility (mole fraction) measured for O=S(=O)([O-])Oc1ccc(C(c2ccc(OS(=O)(=O)[O-])cc2)c2ccccn2)cc1.[Na+].[Na+] and print it.
0.0021

---

Details: in n-propanol, 308.15 K
EXPERIMENTAL_READOUT: solubility (mole fraction)
One number for each entry.

Retrieve solubility (mole fraction) measured for O=S(=O)([O-])Oc1ccc(C(c2ccc(OS(=O)(=O)[O-])cc2)c2ccccn2)cc1.[Na+].[Na+] and print it.
0.0007

---

Conditions: in water, 308.15 K
EXPERIMENTAL_READOUT: solubility (mole fraction)

Retrieve solubility (mole fraction) measured for O=S(=O)([O-])Oc1ccc(C(c2ccc(OS(=O)(=O)[O-])cc2)c2ccccn2)cc1.[Na+].[Na+] and print it.
0.0299
